System: Complex I (bovine heart mitochondria)
Assay: MitoCheck Complex I activity assay
Conditions: 30 μM; bovine heart mitochondria; NADH oxidation
Mito Check I, enzyme residual activity as compared to DMSO-treated sample: recorded values
readout kind: Mito Check I, enzyme residual activity as compared to DMSO-treated sample (%)

{"columns": ["structure smiles string", "measured value"],
 "data": [
  ["O=C1C=C(SCCO)C(=O)c2ccccc21", 212],
  ["NC1=C(Cl)C(=O)c2ccccc2C1=O", 145],
  ["CC(C)(C)NC1=C(Cl)C(=O)c2ccccc2C1=O", 84],
  ["CCNC1=CC(=O)c2ncccc2C1=O", 158],
  ["O=C1C(Cl)=C(Nc2nccs2)C(=O)c2ccccc21", 105],
  ["CCNC1=C(Cl)C(=O)c2ccccc2C1=O", 93],
  ["CCCCCCCNC1=C(Cl)C(=O)c2ccccc2C1=O", 116],
  ["O=C1C(Cl)=C(NCCc2ccccc2)C(=O)c2ccccc21", 135],
  ["CC1=C(N2CC2)C(=O)c2ccccc2C1=O", 72],
  ["COC1=C(N(C)C)C(=O)c2ccccc2C1=O", 51]
]}

###

Test system: primary acute myeloid leukemia (AML) cells obtained from patients
Assay: Kinase inhibitor library screening with and without NSC130362, primary AML cells
Assay type: cell-based, Human
Conditions: ratio of EC50 for inhibitor to EC50 for inhibitor/NSC130362 combination; NSC130362 10 μM; Screen N 3
This listing pairs compounds with measured EC50 decrease, fold (Screen N 3).

{"columns": ["compound", "EC50 decrease, fold (Screen N 3) (fold)"],
 "data": [
  ["O=c1ncn2nc(Sc3ccc(F)cc3F)ccc2c1-c1c(Cl)cccc1Cl", 0.0543],
  ["Nc1cccc2c1CN(C1CCC(=O)NC1=O)C2=O (centres unmarked) [Lenalidomide]", 1.4],
  ["CCOc1cc2ncc(C#N)c(Nc3ccc(F)c(Cl)c3)c2cc1NC(=O)/C=C/CN(C)C [Pelitinib (EKB-569)]", 46.0],
  ["CN1CC[C@H](c2c(O)cc(O)c3c(=O)cc(-c4ccccc4Cl)oc23)[C@H](O)C1", 0.0683],
  ["Cc1ccc2nc(NCCN)c3ncc(C)n3c2c1", 0.01],
  ["CCCCCCCCCCCCc1ccc(S(=O)(=O)Nc2nncs2)cc1", 1.0],
  ["Cn1cc(-c2ccc3nnc(Sc4ccc5ncccc5c4)n3n2)cn1", 66.4],
  ["Oc1nc(-c2ccc(C(F)(F)F)cc2)nc2c1CSCC2", 1.0],
  ["CCc1nc(C(N)=O)c(Nc2ccc(N3CCC(N4CCN(C)CC4)CC3)c(OC)c2)nc1NC1CCOCC1", 1.3],
  ["CC(C)(C)c1cnc(CSc2cnc(NC(=O)C3CCNCC3)s2)o1", 14.0],
  ["Cc1ccc(F)c(NC(=O)Nc2ccc(-c3cccc4[nH]nc(N)c34)cc2)c1", 1.0],
  ["N#CCNC(=O)c1ccc(-c2ccnc(Nc3ccc(N4CCOCC4)cc3)n2)cc1", 320.1],
  ["CN1CCN(c2ccc3nc(-c4c(N)c5c(F)cccc5[nH]c4=O)[nH]c3c2)CC1", 96.7],
  ["Nc1ccn([C@@H]2O[C@H](CO)[C@@H](O)[C@@H]2O)c(=O)n1", 0.132],
  ["O=C(c1ccc(/C=C/c2n[nH]c3ccccc23)cc1)N1CCNCC1", 0.9],
  ["Cc1[nH]c(/C=C2\\C(=O)Nc3ccc(S(=O)(=O)Cc4c(Cl)cccc4Cl)cc32)c(C)c1C(=O)N1CCC[C@@H]1CN1CCCC1", 0.226],
  ["Cc1ccc(-n2nc(C(C)(C)C)cc2NC(=O)Nc2ccc(OCCN3CCOCC3)c3ccccc23)cc1", 511.2]
]}
